B1: glmS ribozyme (parent)
chain: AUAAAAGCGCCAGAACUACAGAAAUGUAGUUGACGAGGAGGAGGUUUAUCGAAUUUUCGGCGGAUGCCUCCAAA

# Variants of: B1
# Method Summary: self-cleavage kobs at 2500 uM GlcN6P; higher = faster cleavage; RNA array
# Details: with glucosamine-6-phosphate
Fewer inactive variants are shown than the library holds.
Property Measured: self-cleavage kobs at 2500 uM GlcN6P (s⁻¹)
# number only, unit s⁻¹ dropped from output

Examples with answers:
>>> number("G40U G41A C67A C70U")
0.000143
>>> number("A52G C70U C71G")
"4.78e-05"
>>> number("C10A A53G C70G")
0.000151
>>> number("A39U A64U")
"4e-05"
>>> number("G29A U46G")
0.000425

Given item U31A C71A , the value recorded as its self-cleavage kobs at 2500 uM GlcN6P is 0.00162

# self-cleavage kobs at 2500 uM GlcN6P of C8U C10U C70G = 0.000587
